- Tested System: Isoleucine--tRNA ligase (Staphylococcus aureus)
- Experimental Protocol: Compound (100 uM) was evaluated for its inhibitory activity against Isoleucyl-tRNA synthetase from staphylococcus aureus WCUH29
Provide the reported inhibition of each item.
Quick note: give the figure in %, leave out the unit.

Entry CC[C@H](C)CC(=O)NS(=O)(=O)CC(=O)N[C@@]1(C(=O)OCc2ccccc2)[C@@H](OC(=O)C[C@@H](C)CC)C[C@H]2C(C(N)=O)=CN(C)C[C@H]21 ; assay system Isoleucine--tRNA ligase (Staphylococcus aureus); inhibition recorded at 19

Entry CC[C@H](C)CC(=O)NS(=O)(=O)CC(=O)N[C@@]1(C(=O)OC)[C@@H](OC(=O)C[C@@H](C)CC)C[C@H]2C(C(N)=O)=CN(C)C[C@H]21 ; assay system Isoleucine--tRNA ligase (Staphylococcus aureus); inhibition recorded at 18

Entry CC[C@H](C)[C@H](NC(=O)OCc1ccccc1)C(=O)NS(=O)(=O)CC(=O)N[C@@]1(C(=O)OC)[C@@H](OC(=O)[C@@H](NC(=O)OCc2ccccc2)[C@@H](C)CC)C[C@H]2C(C(N)=O)=CN(C)C[C@H]21 ; assay system Isoleucine--tRNA ligase (Staphylococcus aureus); inhibition recorded at 46

Entry CC[C@H](C)CC(=O)NS(=O)(=O)CC(=O)N[C@]1(C(=O)OC)[C@@H]2CN(C)C=C(C(N)=O)[C@@H]2C[C@@H]1O ; assay system Isoleucine--tRNA ligase (Staphylococcus aureus); inhibition recorded at 23
